What follows is a record of AC50 for Kappa-type opioid receptor (Homo sapiens, UniProt P41145).

Summary for this compound, O=C(O)CCCCCCCC(=O)O : AC50 is > 10 µM

Form: compound = C=CCC1(C(C)CC)C(=O)NC(=O)NC1=O (centres undefined) ; AC50 = > 10 µM

Given item COc1ccc(-c2ccc3cc(C(=O)O)ccc3c2)cc1C12CC3CC(CC(C3)C1)C2 , the value recorded as its AC50 is > 30 µM

Could I get AC50 for every one of these entries?
1. O=C(O)C[C@H](O)C[C@H](O)/C=C/c1c(C2CC2)nc2ccccc2c1-c1ccc(F)cc1
2. C[C@@H]1O[C@@H](O[C@@H]2C=C3CC[C@@H]4[C@H](CC[C@]5(C)[C@@H](c6ccc(=O)oc6)CC[C@]45O)[C@@]3(C)CC2)[C@H](O)[C@H](O)[C@H]1O
3. CC(C)C[C@H]1C(=O)N2CCC[C@H]2[C@]2(O)O[C@](NC(=O)[C@@H]3C=C4c5cccc6[nH]c(Br)c(c56)C[C@H]4N(C)C3)(C(C)C)C(=O)N12
4. C[C@H](N)[C@H](O)c1cccc(O)c1
5. NS(=O)(=O)Cc1noc2ccccc12 [ZONISAMIDE]
6. NC(=O)OCC(COC(N)=O)c1ccccc1 [FELBAMATE]

Reply:
> 10 µM
> 30 µM
12.8 µM
> 10 µM
> 10 µM
> 10 µM
